These data points were gathered from PubChem BioAssay (NCI).

# Protocol Summary: NCI Yeast Anticancer Drug Screen. Data for the rad50 strain (AID 155);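 note: 0% = growth of vehicle-only cultures of the same strain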
# Study Conditions: S. cerevisiae rad50 strain growth inhibition; at 50.0 µM
About 79,000 compounds went through this panel and 15% of them were active in at least one assay; those are over-represented in the sample as a whole. The source made the active and inactive calls. Cut-off read from the data, not from the text of the source: active = growth inhibition above about 70%; inactive = the rest.
Parameter call: string, one of true (1) = active, false (0) = inactive

Known results for compounds:
CCCC(C)c1ccc(SOO)cc1.[Fe] (stereo not drawn) = false (0)
Cc1ccc(NC(=O)C(Cl)(Cl)Cl)cc1Cl = false (0)
ClC1CC2OC(Cl)CC2O1 (stereo not drawn) = false (0)

Inquiry: How did this test come out for [NH-]C(CCC(N)=O)C(=O)O.[NH-]C(CCC(N)=O)C(=O)O.[Zn+2] (stereo not drawn) ?
Reply text: false (0)

Inquiry: Please indicate how the test categorized `Clc1cc[c]([Tl][c]2ccc(Cl)cc2)cc1` .
Reply text: false (0)

Inquiry: Each compound tested received a call. Report the one for CCCCC1(C(C)C)C(=O)NC(=O)N(C)C1=O (stereo not drawn) .
Reply text: false (0)

Inquiry: What did the test return for CCC1=C(CC2NCCc3cc(OC)c(OC)cc32)CC2c3ccccc3CCN2C1 (stereo not drawn) ?
Reply text: false (0)
